Target: Induced myeloid leukemia cell differentiation protein Mcl-1 (Homo sapiens, UniProt Q07820)
Sequence (Q07820 whole entry): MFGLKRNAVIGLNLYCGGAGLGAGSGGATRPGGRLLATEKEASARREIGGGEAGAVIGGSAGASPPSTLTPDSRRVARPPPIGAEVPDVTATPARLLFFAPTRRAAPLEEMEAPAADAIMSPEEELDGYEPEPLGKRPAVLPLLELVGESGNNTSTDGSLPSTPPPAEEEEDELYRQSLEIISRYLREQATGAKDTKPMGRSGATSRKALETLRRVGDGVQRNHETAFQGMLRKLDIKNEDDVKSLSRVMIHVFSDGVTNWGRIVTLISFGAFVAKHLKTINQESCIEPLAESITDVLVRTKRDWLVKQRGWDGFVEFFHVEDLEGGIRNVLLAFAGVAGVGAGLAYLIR
Assay: Binding affinity to Mcl1
Measured Property: Kd

Task: Consider the molecule shown here: CN(C)CC[C@H](CSc1ccccc1)Nc1ccc(S(=O)(=O)NC(=O)c2ccc(N3CCC(C)(C)CC3)cc2)cc1[N+](=O)[O-] What is its recorded Kd?
Output: > 10 µM

----------
Measured Property: Ki (nM)
Give just the numeric value; nM need not be written.

Task: Fill in the recorded Ki for this compound, with Apoptosis regulator Bcl-2 (Homo sapiens) as test system: COc1cc(CCCO)ccc1-c1ccc(C(=O)NS(=O)(=O)c2ccc(NCCSc3ccccc3)c([N+](=O)[O-])c2)cc1
Output: 721

Task: Observed Ki on Apoptosis regulator Bcl-2 (Homo sapiens) for CC1(C)CCN(c2ccc(C(=O)NS(=O)(=O)c3ccc(N[C@H](CCN4CCOCC4)CSc4ccccc4)c([N+](=O)[O-])c3)cc2)CC1 , please.
Output: 55

Task: Request: Ki, test system Apoptosis regulator Bcl-2 (Homo sapiens), entry CN(C)C(=O)C[C@H](CSc1ccccc1)Nc1ccc(S(=O)(=O)NC(=O)c2ccc(N3CCC(C)(C)CC3)cc2)cc1[N+](=O)[O-]
Output: 75

----------
Target: Bcl-2-like protein 1 (Homo sapiens, UniProt Q07817)
Assay: Inhibitory activity against Bcl-XL in presence of HSA3 from 1% human serum
Sequence (Q07817 whole entry, looked up): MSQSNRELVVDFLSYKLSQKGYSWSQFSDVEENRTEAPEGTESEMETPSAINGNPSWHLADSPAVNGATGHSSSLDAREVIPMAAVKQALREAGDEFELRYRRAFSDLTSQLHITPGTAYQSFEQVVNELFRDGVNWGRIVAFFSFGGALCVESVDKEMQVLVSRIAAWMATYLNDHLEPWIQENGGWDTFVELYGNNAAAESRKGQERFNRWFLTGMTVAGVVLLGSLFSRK
Measured Property: IC50 (µM)
Enter your answer as a number in µM; do not include the unit.

Task: Consider the molecule shown here: O=C(NS(=O)(=O)c1ccc(NCCSc2ccccc2)c([N+](=O)[O-])c1)c1ccc(-c2ccc(F)cc2)cc1 What is its recorded IC50?
Output: 6.3

----------
Biological target: Bcl-2-like protein 1 (Homo sapiens, UniProt Q07817)
Assay: Binding affinity to Bcl-XL in 1% human serum by fluorescence polarization assay
Sequence (Q07817 whole entry): as the sequence (Q07817 whole entry, looked up) above
pKi: −log10 of the molar value.
Given measured pKi, output Fulfilled if it is greater than or equal to 6 and Not fulfilled if not.

Task: State whether the measured pKi reaches 6, counting equality as reaching it, for COc1cc(CCCN2CCOCC2)ccc1-c1ccc(C(=O)NS(=O)(=O)c2ccc(N[C@H](CCCCN)CSc3ccccc3)c([N+](=O)[O-])c2)cc1
Output: Fulfilled

Task: Would you say CC1(C)CCN(c2ccc(C(=O)NS(=O)(=O)c3ccc(NCCSc4ccccc4)c([N+](=O)[O-])c3)cc2)CC1 shows pKi at minimum 6?
Output: Fulfilled

Task: Entry COc1cc(CC(=O)N(C)C)ccc1-c1ccc(C(=O)NS(=O)(=O)c2ccc(NCCSc3ccccc3)c([N+](=O)[O-])c2)cc1 : is its pKi no less than 6?
Output: Not fulfilled

Task: Assess whether reported pKi for CC1(C)CCN(c2ccc(C(=O)NS(=O)(=O)c3ccc(N[C@@H](CCN4CCOCC4)CSc4ccccc4)c([N+](=O)[O-])c3)cc2)CC1 sits at 6 or higher.
Output: Not fulfilled

Task: Threshold query (pKi >= 6) on COc1cc(CCCO)ccc1-c1ccc(C(=O)NS(=O)(=O)c2ccc(NCCSc3ccccc3)c([N+](=O)[O-])c2)cc1
Output: Not fulfilled

Task: Textbook exercise: given the entry COc1cc(CCCN2CCOCC2)ccc1-c1ccc(C(=O)NS(=O)(=O)c2ccc(N[C@H](CCCN(C)C)CSc3ccccc3)c([N+](=O)[O-])c2)cc1 , state whether its pKi is greater than or equal to 6.
Output: Fulfilled

Task: Would you say CC(C)(C)OC(=O)N1CCN(c2ccc(C(=O)NS(=O)(=O)c3ccc(NCCSc4ccccc4)c([N+](=O)[O-])c3)cc2)CC1 shows pKi at minimum 6?
Output: Not fulfilled

Task: # check: pKi of O=C(NS(=O)(=O)c1ccc(NCCSc2ccccc2)c([N+](=O)[O-])c1)c1ccc(N2CCNCC2)cc1 is greater than or equal to 6
Output: Not fulfilled

Task: Could you please find out whether CN(C)CC[C@@H](CSc1ccccc1)Nc1ccc(S(=O)(=O)NC(=O)c2ccc(N3CCC(C)(C)CC3)cc2)cc1[N+](=O)[O-] has pKi that meets 6 or exceeds it?
Output: Not fulfilled

----------
Target: Bcl-2-like protein 1 (Homo sapiens, UniProt Q07817)
Test: Binding affinity to Bcl-XL by fluorescence polarization assay
Measured Property: Ki (nM)
Write it as a number; the unit nM goes unstated.

Task: Write down the reported Ki of CC(C)(C)OC(=O)N1CCN(c2ccc(C(=O)NS(=O)(=O)c3ccc(NCCSc4ccccc4)c([N+](=O)[O-])c3)cc2)CC1 , test system: Bcl-2-like protein 1 (Homo sapiens, UniProt Q07817).
Output: 396

Task: What reported Ki corresponds to COc1cc(CC(=O)N(C)C)ccc1-c1ccc(C(=O)NS(=O)(=O)c2ccc(NCCSc3ccccc3)c([N+](=O)[O-])c2)cc1 on Bcl-2-like protein 1 (Homo sapiens, UniProt Q07817)?
Output: 251

Task: Provide the documented Ki with Bcl-2-like protein 1 (Homo sapiens, UniProt Q07817) as the system for COc1cc(CCCN(C)C)ccc1-c1ccc(C(=O)NS(=O)(=O)c2ccc(NCCSc3ccccc3)c([N+](=O)[O-])c2)cc1
Output: 106

Task: Param readout= Ki; system= Bcl-2-like protein 1 (Homo sapiens, UniProt Q07817); entry= COc1cc(CCCN2CCOCC2)ccc1-c1ccc(C(=O)NS(=O)(=O)c2ccc(N[C@H](CCCN(C)C)CSc3ccccc3)c([N+](=O)[O-])c2)cc1 ; returns value.
Output: 0.9

Task: Identify the measured Ki of COc1cc(CCCN2CCOCC2)ccc1-c1ccc(C(=O)NS(=O)(=O)c2ccc(NCCSc3ccccc3)c([N+](=O)[O-])c2)cc1 for Bcl-2-like protein 1 (Homo sapiens, UniProt Q07817).
Output: 10.4

----------
Measured Property: pKi
// returns pKi (minus log10 of molar concentration), number only

Task: Lookup: pKi / Apoptosis regulator Bcl-2 (Homo sapiens, UniProt P10415) / O=C(NS(=O)(=O)c1ccc(NCCSc2ccccc2)c([N+](=O)[O-])c1)c1ccc(-c2ccc(F)cc2)cc1
Output: 6.36

Task: What measured pKi is associated with COc1cc(CCC(=O)N2CCOCC2)ccc1-c1ccc(C(=O)NS(=O)(=O)c2ccc(NCCSc3ccccc3)c([N+](=O)[O-])c2)cc1 on Apoptosis regulator Bcl-2 (Homo sapiens, UniProt P10415)?
Output: 6.44

Task: Tell me reported pKi for CN(C)CCC[C@H](CSc1ccccc1)Nc1ccc(S(=O)(=O)NC(=O)c2ccc(N3CCC(C)(C)CC3)cc2)cc1[N+](=O)[O-] , tested with Apoptosis regulator Bcl-2 (Homo sapiens, UniProt P10415).
Sequence (P10415 whole entry): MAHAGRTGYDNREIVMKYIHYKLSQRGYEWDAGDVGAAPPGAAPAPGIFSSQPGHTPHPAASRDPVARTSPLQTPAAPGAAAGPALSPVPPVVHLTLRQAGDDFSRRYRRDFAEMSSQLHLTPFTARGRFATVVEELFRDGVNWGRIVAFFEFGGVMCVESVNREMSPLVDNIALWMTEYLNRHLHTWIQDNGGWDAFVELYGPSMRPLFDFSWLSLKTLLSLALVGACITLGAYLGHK
Output: 7.04

Task: API: value(readout=pKi, system=Apoptosis regulator Bcl-2 (Homo sapiens, UniProt P10415)) for record CN(C)CC[C@H](CSc1ccccc1)Nc1ccc(S(=O)(=O)NC(=O)c2ccc(N3CCC(C)(C)CC3)cc2)cc1[N+](=O)[O-]
Output: 7.17

----------
Target: UniProt Q07817
Assay: Activity towards mouse FL5.12 cell line transfected with Bcl-XL in presence of 3% fetal bovine serum
Would you kindly list pEC50 for each of these compounds?
Quick note: pEC50 values are minus log10 of concentrations in mol/L.

Task: Please state recorded pEC50 (tested on UniProt Q07817) of COc1cc(CCCN2CCOCC2)ccc1-c1ccc(C(=O)NS(=O)(=O)c2ccc(N[C@H](CCN(C)C)CSc3ccccc3)c([N+](=O)[O-])c2)cc1
Output: 5.68

Task: Value wanted: pEC50 (UniProt Q07817) of entry COc1cc(CCCN2CCOCC2)ccc1-c1ccc(C(=O)NS(=O)(=O)c2ccc(N[C@@H](CCN(C)C)CSc3ccccc3)c([N+](=O)[O-])c2)cc1
Output: 4.23

Task: Any idea what pEC50 came out for CN(C)CC[C@@H](CSc1ccccc1)Nc1ccc(S(=O)(=O)NC(=O)c2ccc(N3CCC(C)(C)CC3)cc2)cc1[N+](=O)[O-] on UniProt Q07817?
Output: 4.79

Task: Request - read-out pEC50 | tested on UniProt Q07817 | compound CC1(C)CCN(c2ccc(C(=O)NS(=O)(=O)c3ccc(N[C@@H](CCN4CCOCC4)CSc4ccccc4)c([N+](=O)[O-])c3)cc2)CC1
Output: 5.03

Task: Return pEC50 measured with UniProt Q07817 given this compound: COc1cc(CCCN2CCOCC2)ccc1-c1ccc(C(=O)NS(=O)(=O)c2ccc(N[C@H](CCCCN(C)C)CSc3ccccc3)c([N+](=O)[O-])c2)cc1
Output: 5.22

----------
Molecular target: Bcl-2-like protein 1 (Homo sapiens, UniProt Q07817)
Test: Binding affinity to Bcl-XL in 1% human serum by fluorescence polarization assay
So I've got a bunch of compounds here, and I need their pKi values.
Remember, pKi is on a log scale: it is -log10 of the molar concentration.

Task: Give Bcl-2-like protein 1 (Homo sapiens, UniProt Q07817) pKi for COc1cc(CCCN2CCOCC2)ccc1-c1ccc(C(=O)NS(=O)(=O)c2ccc(N[C@@H](CSc3ccccc3)CC(=O)N(C)C)c([N+](=O)[O-])c2)cc1
Output: 6.00

Task: Please provide the recorded pKi for COc1cc(CCCN2CCOCC2)ccc1-c1ccc(C(=O)NS(=O)(=O)c2ccc(N[C@@H](CCN(C)C)CSc3ccccc3)c([N+](=O)[O-])c2)cc1 , tested on Bcl-2-like protein 1 (Homo sapiens, UniProt Q07817).
Output: 5.94

Task: So what pKi did COc1cc(CCN(C)C)ccc1-c1ccc(C(=O)NS(=O)(=O)c2ccc(NCCSc3ccccc3)c([N+](=O)[O-])c2)cc1 get with Bcl-2-like protein 1 (Homo sapiens, UniProt Q07817)?
Output: 6.00

Task: Which pKi is reported with Bcl-2-like protein 1 (Homo sapiens, UniProt Q07817) for this entry: COc1cc(CCCN(C)C)ccc1-c1ccc(C(=O)NS(=O)(=O)c2ccc(NCCSc3ccccc3)c([N+](=O)[O-])c2)cc1 ?
Output: 6.14

Task: Form field - read-out: pKi; system: Bcl-2-like protein 1 (Homo sapiens, UniProt Q07817); submitted item: COc1cc(CCC(=O)N(C)C)ccc1-c1ccc(C(=O)NS(=O)(=O)c2ccc(NCCSc3ccccc3)c([N+](=O)[O-])c2)cc1
Output: 6.00
